tested on: HEK-293T; experiment: Multiplex assay against HEK293T; type: toxicity, cell-based; conditions: human, 48 h, 1 µM, compound concentration 1 uM, replicate 1
resultType: Population Normal (%)
Record the result as number plus unit.

{"compound": "Cl.N=C(N)NC(=O)Cc1c(Cl)cccc1Cl [GUANFACINE HYDROCHLORIDE]", "assaySystem": "HEK-293T", "Population Normal (%)": "97%"}

Entry Cc1onc(-c2ccccc2Cl)c1C(=O)N(C)c1ccc(Cl)cc1 : reported Population Normal (%) = ? 97%

Entry CN1CCN(c2cc(-c3ccccc3)nc(N)n2)CC1 : reported Population Normal (%) = ? 98%

Entry N#Cc1c(Oc2cccc(OS(=O)(=O)CCCC(F)(F)F)c2)cccc1C(F)(F)F : reported Population Normal (%) = ? 98%

###

Examples of molecules with documented Population Normal (%) follow.
tested on: U2OS; test: Multiplex assay against U2OS; format: toxicity, cell-based; conditions: human, 48 h, 1 µM, compound concentration 1 uM, replicate 2
Reply with just the number (in %).

Entry NCCc1cn(S(=O)(=O)c2c(Cl)nc3sccn23)c2ccccc12.O=C(O)C(=O)O : reported Population Normal (%) = ? 93

###

system: Fibroblast; test: Multiplex assay against human fibroblast; format: toxicity, cell-based; settings: 24 h, 1 µM, compound concentration 1 uM, replicate 2
resultType: Total Cell Count
Give a plain numeric answer without units written out.

These recorded examples may help you get a feel for the data.
{"compound": "NCCc1cn(S(=O)(=O)c2c(Cl)nc3sccn23)c2ccccc12.O=C(O)C(=O)O", "Total Cell Count": 166}
{"compound": "CC(C)COc1ccc(CNC(=O)N(Cc2ccc(F)cc2)C2CCN(C)CC2)cc1", "Total Cell Count": 157}
{"compound": "CCCOc1ccc2[nH]cc(C3=CCNCC3)c2n1.Cl", "Total Cell Count": 140}
{"compound": "O=C1[C@H](Cc2ccc(O)cc2)N2C(=O)CCN(C(=O)NCc3ccccc3)[C@H]2CN1Cc1cccc2ccccc12", "Total Cell Count": 147}
{"compound": "CN(C)C(=O)Cn1cc(-c2ccc(-c3cncc4ccccc34)cc2)cn1", "Total Cell Count": 156}

Entry CN[C@@H](C)C(=O)N[C@H](C(=O)N1CCC[C@H]1C(=O)Nc1snnc1-c1ccccc1)C1CCCCC1 : reported Total Cell Count = ? 133

Entry CC(C)c1noc(N2CCC(COc3ccc(-c4ccc(S(C)(=O)=O)cc4)nc3)CC2)n1 : reported Total Cell Count = ? 142

Entry CCCCC1=NC2(CCCC2)C(=O)N1Cc1ccc(-c2ccccc2-c2nnn[nH]2)cc1 : reported Total Cell Count = ? 183

Entry O=C(NCCN1CCC(n2c(=O)[nH]c3cc(Cl)ccc32)CC1)c1ccc(F)cc1 [HALOPEMIDE] : reported Total Cell Count = ? 100

Entry Cc1cnc(-c2cc(N3CCN(C(=O)CCS(C)(=O)=O)CC3)ncc2Cl)c(C)c1 : reported Total Cell Count = ? 91

Entry Cc1cccc(NC(=O)CN2CCC(c3ccccn3)CC2)c1.Cl.Cl : reported Total Cell Count = ? 239

Entry Cc1noc(-c2ccc(-c3ccc(CC(=O)O)cc3)cc2)c1NC(=O)O[C@H](C)c1ccccc1Cl : reported Total Cell Count = ? 161

Entry N#Cc1cc(F)cc(-c2nc(-c3ccc(F)cn3)no2)c1 : reported Total Cell Count = ? 88

Entry Cc1onc(-c2ccccc2Cl)c1C(=O)N(C)c1ccc(Cl)cc1 : reported Total Cell Count = ? 182

Entry Cc1c(CC(=O)O)c2cccnc2n1Cc1ccc(S(C)(=O)=O)cc1C(F)(F)F : reported Total Cell Count = ? 150

###

tested on: U2OS; test: Multiplex assay against U2OS; type: toxicity, cell-based; conditions: human, 48 h, 10 µM, compound concentration 10 uM, replicate 2
The label MET is reserved for Population Membrane Permeable-Phenotype (%) strictly under 10%; NOT MET covers values equal to or above it.

Recorded results for 4 compounds are shown here.
{"compound": "CC[C@@H](C)Nc1nc(C)nc2c(-c3ccc(OC)nc3C)c(C)nn12 [PEXACERFONT]", "label": "MET"}
{"compound": "CN1CCN(c2cc(-c3ccccc3)nc(N)n2)CC1", "label": "MET"}
{"compound": "O=C1[C@H](Cc2ccc(O)cc2)N2C(=O)CCN(C(=O)NCc3ccccc3)[C@H]2CN1Cc1cccc2ccccc12", "label": "NOT MET"}
{"compound": "CC(C)(C)c1cc(NC(=O)Nc2ccc(-c3cn4c(n3)sc3cc(OCCN5CCOCC5)ccc34)cc2)no1 [QUIZARTINIB]", "label": "NOT MET"}

# TODO verify Population Membrane Permeable-Phenotype (%) < 10% strictly for this compound: O=C(NCCN1CCC(n2c(=O)[nH]c3cc(Cl)ccc32)CC1)c1ccc(F)cc1 [HALOPEMIDE] NOT MET

# TODO verify Population Membrane Permeable-Phenotype (%) < 10% strictly for this compound: Cc1onc(-c2ccccc2Cl)c1C(=O)N(C)c1ccc(Cl)cc1 MET

# TODO verify Population Membrane Permeable-Phenotype (%) < 10% strictly for this compound: O=C(CCCc1ccccc1)Nc1nc2ccccc2c(=O)s1 MET

# TODO verify Population Membrane Permeable-Phenotype (%) < 10% strictly for this compound: Cc1cnc(-c2cc(N3CCN(C(=O)CCS(C)(=O)=O)CC3)ncc2Cl)c(C)c1 NOT MET

# TODO verify Population Membrane Permeable-Phenotype (%) < 10% strictly for this compound: N#Cc1cc(F)cc(-c2nc(-c3ccc(F)cn3)no2)c1 MET

###

test system: Fibroblast; assay: Multiplex assay against human fibroblast; type: toxicity, cell-based; conditions: 48 h, 1 µM, compound concentration 1 uM, replicate 1
Examples of compounds with documented Population Mitotic Cells (%) follow.
Record the result as number plus unit.

These recorded examples may help you get a feel for the data.
{"compound": "Cc1sc2c(c1C)C(c1ccc(Cl)cc1)=N[C@@H](CC(=O)NCCCCCCCCNC(=O)COc1cccc3c1C(=O)N(C1CCC(=O)NC1=O)C3=O)c1nnc(C)n1-2 (stereo partly drawn)", "recordedResult": "12%"}
{"compound": "COC[C@@H](c1ccc(C(F)(F)F)cc1)N1CCN(C2(C)CCN(C(=O)c3c(C)ncnc3C)CC2)C[C@@H]1C.O=C(O)/C=C\\C(=O)O [VICRIVIROC MALEATE]", "recordedResult": "40%"}
{"compound": "N#Cc1cc(F)cc(-c2nc(-c3ccc(F)cn3)no2)c1", "recordedResult": "38%"}
{"compound": "Cc1onc(-c2ccccc2Cl)c1C(=O)N(C)c1ccc(Cl)cc1", "recordedResult": "23%"}
{"compound": "COc1ccccc1N1CCN(C[C@@H](C(=O)NC(C)(C)C)c2ccccc2)CC1.Cl.Cl", "recordedResult": "15%"}
{"compound": "Cc1c(CC(=O)O)c2cccnc2n1Cc1ccc(S(C)(=O)=O)cc1C(F)(F)F", "recordedResult": "35%"}
{"compound": "CN(C)C(=O)Cn1cc(-c2ccc(-c3cncc4ccccc34)cc2)cn1", "recordedResult": "23%"}

Entry CC[C@@H](C)Nc1nc(C)nc2c(-c3ccc(OC)nc3C)c(C)nn12 : reported Population Mitotic Cells (%) = ? 45%

###

tested on: Fibroblast; test: Multiplex assay against human fibroblast; assay type: toxicity, cell-based; settings: 12 h, 10 µM, compound concentration 10 uM, replicate 1
resultType: Population Fragmented Nuclei (%)
Reply with just the number (in %).

These recorded examples may help you get a feel for the data.
{"compound": "Cc1sc2c(c1C)C(c1ccc(Cl)cc1)=N[C@@H](CC(=O)NCCCCCCCCNC(=O)COc1cccc3c1C(=O)N(C1CCC(=O)NC1=O)C3=O)c1nnc(C)n1-2 (some centres undefined)", "resultType": "Population Fragmented Nuclei (%)", "recordedResult": 13}
{"compound": "CN[C@@H](C)C(=O)N[C@H](C(=O)N1CCC[C@H]1C(=O)Nc1snnc1-c1ccccc1)C1CCCCC1", "resultType": "Population Fragmented Nuclei (%)", "recordedResult": 17}
{"compound": "CCCCCC(O)/C=C/[C@H]1C(=O)CC(O)C1C/C=C\\CCCC(=O)O (some centres undefined)", "resultType": "Population Fragmented Nuclei (%)", "recordedResult": 16}
{"compound": "Cc1c(CC(=O)O)c2cccnc2n1Cc1ccc(S(C)(=O)=O)cc1C(F)(F)F", "resultType": "Population Fragmented Nuclei (%)", "recordedResult": 10}
{"compound": "CN(C)C(=O)Cn1cc(-c2ccc(-c3cncc4ccccc34)cc2)cn1", "resultType": "Population Fragmented Nuclei (%)", "recordedResult": 13}

# query: Population Fragmented Nuclei (%) | item COC[C@@H](c1ccc(C(F)(F)F)cc1)N1CCN(C2(C)CCN(C(=O)c3c(C)ncnc3C)CC2)C[C@@H]1C.O=C(O)/C=C\C(=O)O [VICRIVIROC MALEATE] | system: Fibroblast 26

# query: Population Fragmented Nuclei (%) | item CC(/C=C1\SC(=S)N(CCCC(=O)Nc2ccc(C(=O)O)c(O)c2)C1=O)=C\c1ccccc1 | system: Fibroblast 15

# query: Population Fragmented Nuclei (%) | item CCCCC(=O)N(Cc1ccc(-c2ccccc2-c2nnn[nH]2)cc1)[C@H](C(=O)O)C(C)C | system: Fibroblast 20

# query: Population Fragmented Nuclei (%) | item CCc1cc2cc(NS(=O)(=O)c3ccc(C#N)cc3)ccc2n(CC)c1=O | system: Fibroblast 18

# query: Population Fragmented Nuclei (%) | item O=C1[C@H](Cc2ccc(O)cc2)N2C(=O)CCN(C(=O)NCc3ccccc3)[C@H]2CN1Cc1cccc2ccccc12 | system: Fibroblast 18

# query: Population Fragmented Nuclei (%) | item O=C(CCCc1ccccc1)Nc1nc2ccccc2c(=O)s1 | system: Fibroblast 21

# query: Population Fragmented Nuclei (%) | item Cc1cccc(NC(=O)CN2CCC(c3ccccn3)CC2)c1.Cl.Cl | system: Fibroblast 8

# query: Population Fragmented Nuclei (%) | item NCCc1cn(S(=O)(=O)c2c(Cl)nc3sccn23)c2ccccc12.O=C(O)C(=O)O | system: Fibroblast 20

# query: Population Fragmented Nuclei (%) | item COc1cccc2c1c(NS(=O)(=O)c1ccc(Cl)s1)nn2Cc1cccc(CNC(=O)C(C)(C)O)c1 | system: Fibroblast 13
